- assay-target: Macrophage migration inhibitory factor (Homo sapiens, UniProt P14174)
- test-summary: Inhibition of human recombinant MIF ketonase activity using phenylpyruvate as substrate
- experimental-setup: read-out: IC50
Response field label takes Condition met when IC50 is strictly below 20 µM and Condition not met in all other cases.

1. O=C1/C(=C/c2ccccc2)COc2cc(O)ccc21	Condition not met
2. O=C1/C(=C/c2ccc(O)c(O)c2)Cc2ccccc21	Condition met
3. O=C1/C(=C/c2ccccc2O)CCc2ccccc21	Condition not met
4. COc1ccc(/C=C2\Cc3ccccc3C2=O)cc1O	Condition met
5. O=C1/C(=C/c2ccc3c(c2)OCO3)CCc2cc(O)ccc21	Condition not met
6. CN(C)c1ccc(/C=C2\CCc3cc(O)ccc3C2=O)cc1	Condition not met
7. COc1ccc2c(c1)CC/C(=C\c1ccc(O)c(OC)c1)C2=O	Condition not met
8. O=C1/C(=C/c2ccccc2)CCc2cc(O)ccc21	Condition met

* * *

- assay-target: Macrophage migration inhibitory factor (Homo sapiens, UniProt P14174)
- Sequence (P14174 whole entry): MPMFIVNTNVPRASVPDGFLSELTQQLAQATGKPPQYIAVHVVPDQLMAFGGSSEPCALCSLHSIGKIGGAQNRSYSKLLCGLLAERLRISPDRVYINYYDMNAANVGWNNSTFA
- test-summary: Inhibition of human recombinant MIF ketonase activity using phenylpyruvate as substrate
- experimental-setup: read-out: IC50
pIC50: −log10 of the molar value.
value-kind: pIC50

1. COc1ccc2c(c1)C(=O)/C(=C/c1ccc(O)c(OC)c1)C2	4.70
2. COc1ccc2c(c1)CC/C(=C\c1cccnc1)C2=O	4.20
3. COc1ccc2c(c1)C/C(=C\c1cccc(O)c1O)C2=O	4.17
4. COc1ccc2c(c1)CC/C(=C\c1ccccc1)C2=O	4.31

The reported measurements were obtained from ChEMBL document CHEMBL5331097.
